# Experiment: chemical genetic growth profiling, strain panel (AID 1159580);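 also: tested at 20 µM; growth read once vehicle control cultures reached saturation at 30 °C; lower values mean less growth of the strain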
# Stated Conditions: S. cerevisiae deletion strains, growth OD, locus YOL012C, strain htz1
The campaign covered roughly 5,500 compounds. About 2,000 (36%) were called active. Not shown: some 18% with an inconclusive outcome. Rule as the data show it: active = normalized growth mostly below about 0.91 (no sharp cut-off); inconclusive = no clear call, values can overlap the other calls; inactive = mostly above about 0.92. The list shows a part of the results.
Reply using exactly one outcome from active, inactive

As a guide, the following entries are already answered.
{"columns": ["Molecule", "Discrete Label"],
 "data": [
  ["NC(=O)N1c2ccccc2CC(=O)c2ccccc21", "inactive"],
  ["OCC(O)Cc1ccc2c(c1)OCO2 (stereo not drawn)", "inactive"],
  ["O=C(O)c1cc(=O)c2cc(Cl)ccc2[nH]1", "inactive"],
  ["O=C1CC(c2ccc(O)cc2)Oc2ccccc21 (stereo not drawn)", "inactive"],
  ["CCCCCCCCCCCCC[N+](C)(C)Cc1ccccc1", "inactive"]
]}

Here's the next entry for you.
Data request: What classification did "CCCCOc1ccc(CC(=O)NO)cc1" end up with in this test?
Data returned: inactive
